Attribution: patent US20230416329A1

The following binders are listed with their measured Residual trypsin activity (%) values.
# target: bovine trypsin (bovine, UniProt P00760 24-246)
# Sequence (P00760 24-246): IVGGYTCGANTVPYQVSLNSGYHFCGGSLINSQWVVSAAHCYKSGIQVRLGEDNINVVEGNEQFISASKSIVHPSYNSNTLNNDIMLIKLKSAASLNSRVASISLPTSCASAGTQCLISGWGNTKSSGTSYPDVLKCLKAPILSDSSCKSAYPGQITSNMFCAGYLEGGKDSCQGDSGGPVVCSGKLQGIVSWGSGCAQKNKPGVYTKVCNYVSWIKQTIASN
# protocolDetails: trypsin (50 nM) BApNA hydrolysis, OD405; peptide at 9.76 µM
Bridge positions count the residues as written; N and C are the ends. Ends that are not written are not given here.
metric: Residual trypsin activity (%)

1. CARATKSIPPICF (disulfide 1-12 (inferred), synthetic) [BT67] = 0.1
2. CGTATKSIPPICF (disulfide 1-12 (inferred), synthetic) [BT25] = 1
3. CGRAAKSIPPICF (disulfide 1-12 (inferred), synthetic) [BT26] = 0.4
4. CPRATKSIPPICF (disulfide 1-12 (inferred), synthetic) [BT66] = 0.1
